Target: S. aureus SPase (Staphylococcus aureus)
Construct: Full length His-tagged E. coli and S. aureus SPase proteins were expressed in E. coli BL21; His tag; made in house; host or cells: E. coli BL21 (DE3)
Sequence (P0A070 1-191): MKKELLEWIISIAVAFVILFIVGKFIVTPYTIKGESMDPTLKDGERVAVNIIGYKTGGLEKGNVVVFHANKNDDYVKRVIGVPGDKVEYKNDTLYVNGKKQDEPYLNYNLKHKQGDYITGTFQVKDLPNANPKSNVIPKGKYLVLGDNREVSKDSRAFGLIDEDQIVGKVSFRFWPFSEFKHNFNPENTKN
Test: SPase enzyme inhibition assay, fluorogenic peptide substrate, S. aureus
Assay type: biochemical
measurement_label: pIC50
Numbers only, as −log10 of the molar value.

Example cases with answers are listed next.
C[C@@H]1NC(=O)[C@@H](N(C)C(=O)[C@H](CCCCN)NC(=O)c2ccc(-c3ccc(Cl)cc3)cc2)c2ccc(O)c(c2)-c2cc(ccc2O)C[C@@H](C(=O)N[C@@H](C)C(=O)N(C)C)NC1=O [Compound 137] : 5.51
CCCCCCCCCCCCCC(=O)N[C@@H](CCCCN)C(=O)N(C)[C@@H]1C(=O)N[C@@H](C)C(=O)N[C@H](C(=O)NCB(O)O)Cc2ccc(O)c(c2)-c2cc1ccc2O [Compound 118] : 7.51

Kindly review the next compound as well.
Asked: State its pIC50 for this compound: C[C@@H]1NC(=O)[C@@H](N(C)C(=O)[C@H](CCCCN)NC(=O)c2ccc(-c3ccc(Cl)cc3)cc2)c2ccc(O)c(c2)-c2cc(ccc2O)C[C@@H](C(=O)N[C@@H](C)C(=O)N2CCC[C@H]2C(N)=O)NC1=O [Compound 132]
Given back: 8.23

====

Target: S. aureus SPase (Staphylococcus aureus, UniProt P0A070)
Construct: Full length His-tagged E. coli and S. aureus SPase proteins were expressed in E. coli BL21; His tag; made in house; host or cells: E. coli BL21 (DE3)
Assay: SPase enzyme inhibition assay, fluorogenic peptide substrate, S. aureus
Format: biochemical
Positions of bridges follow the written chain, without caps; N, C: chain ends. Non-standard residues stand in square brackets, D forms with d. Residues, ends and D or L forms follow the SMILES beside them. *: point of attachment. boroAla((+)-pinanediol) = C[C@H](N*)B1O[C@@H]2C[C@@H]3C[C@@H](C3(C)C)[C@]2(C)O1; Biphenylcarbonyl(4'-Bu) = CCCCc1ccc(-c2ccc(C(=O)*)cc2)cc1; Aad = N[C@@H](CCCC(=O)O)C(=O)O
Exercise: state measured IC50 for each of the molecules provided.
One number for each entry, in nM.

CCCCc1ccc(-c2ccc(C(=O)N[C@@H](CCCCN)C(=O)N(C)[C@@H]3C(=O)N[C@@H](C)C(=O)N[C@H](C(=O)N[C@@H](C)B4O[C@@H]5C[C@@H]6C[C@@H](C6(C)C)[C@]5(C)O4)Cc4ccc(O)c(c4)-c4cc3ccc4O)cc2)cc1 : 110
CCCCc1ccc(-c2ccc(C(=O)N[C@@H](CCCCN)C(=O)N[C@H]3CCCC(=O)NCCCC[C@@H](C(=O)N[C@@H](C)B4O[C@@H]5C[C@@H]6C[C@@H](C6(C)C)[C@]5(C)O4)NC(=O)[C@H](C)NC3=O)cc2)cc1 [Compound 203] ({Biphenylcarbonyl(4'-Bu)}-K[Aad]AK-{boroAla((+)-pinanediol)}; lactam 2-4) : 81
CCCCCCCC(=O)N[C@@H](CCCCN)C(=O)N(C)[C@@H]1C(=O)N[C@@H](C)C(=O)N[C@H](C(=O)NCB2O[C@@H]3C[C@@H]4C[C@@H](C4(C)C)[C@]3(C)O2)Cc2ccc(O)c(c2)-c2cc1ccc2O : 130

Now take the following molecule into account.
Asked: // fetch IC50 given entry CCCCCCCCCCCCCC(=O)N[C@@H](CCCCN)C(=O)N(C)[C@@H]1C(=O)N[C@@H](C)C(=O)N[C@H](C(=O)O)Cc2ccc(O)c(c2)-c2cc1ccc2O
Given back: 160
